Please respond with reported Tmax for every item in the list.
Protocol description: Blood-brain barrier (BBB) study in SD rats after single IV and PO administration, brain
Type: in vivo
Assay setup: Sprague-Dawley (SD); rat brain; IV 1 mg/kg
Description: Effect Example 3: Pharmacokinetic and blood-brain barrier (BBB) studies of compounds after single intravenous (IV) and oral (PO) administration in SD rats […] Among them, Cmax and Tmax are measured values, the elimination rate constant k of the tail section of the C-t curve is obtained from the linear regression of LnC-t, and the value of AUC0-4 is calculated by the trapezoidal area method, and the area under the curve from 0 to ∞ time is AUC=AUC0-4+Ct/k.
Give bare numbers, in min.

Past entries and their recorded results:
1. O=C(O)/C=C/c1ccc(Cn2ccnc2)cc1 [Ozagrel, reference compound] = 4.8
2. O=C(O)[C@@H]1C[C@H]1c1ccc(Cn2cnc(F)c2)c(Cl)c1 = 4.8
3. O=C(O)[C@@H]1C[C@H]1c1ccc(Cn2ccnc2)cc1 = 4.8
4. O=C(O)[C@@H]1C[C@H]1c1ccc(Cn2ccnc2)c(F)c1 = 4.8
5. O=C(O)[C@@H]1C[C@H]1c1ccc(Cn2cnc(F)c2)cc1F = 4.8

Please turn your attention to the following entry.
Lookup: Can you share its Tmax? I mean this molecule: O=C(O)[C@@H]1C[C@H]1c1ccc(Cn2cnc(Cl)c2)c(Cl)c1
Found: 60

* * *

Protocol description: Pharmacokinetics in SD rats after single IV and PO administration, plasma
Assay type: in vivo
Assay setup: Sprague-Dawley (SD); rat plasma; PO 6 mg/kg
Answer each item with its documented Tmax.
Give bare numbers, in h.

// known answers, use as guide
1. O=C(O)/C=C/c1ccc(Cn2ccnc2)cc1 [Ozagrel, reference compound] = 0.25
2. O=C(O)[C@@H]1C[C@H]1c1ccc(Cn2cnc(Cl)c2)c(Cl)c1 = 4
3. O=C(O)[C@@H]1C[C@H]1c1ccc(Cn2cnc(F)c2)cc1F = 2
4. O=C(O)[C@@H]1C[C@H]1c1ccc(Cn2cnc(F)c2)c(Cl)c1 = 1
5. O=C(O)[C@@H]1C[C@H]1c1ccc(Cn2ccnc2)cc1 = 0.25

Lookup: Entry O=C(O)[C@@H]1C[C@H]1c1ccc(Cn2ccnc2)c(F)c1 has what Tmax?
Found: 1

* * *

Protocol description: Pharmacokinetics in SD rats after single IV and PO administration, plasma
Format: in vivo
Assay setup: Sprague-Dawley (SD); rat plasma; PO 6 mg/kg; read-out: MRT(0−t)
// condition not met strictly below 3 h in MRT last; condition met otherwise

Answered cases to consult:
1. O=C(O)[C@@H]1C[C@H]1c1ccc(Cn2cnc(F)c2)c(Cl)c1 [Compound 18] = condition met
2. O=C(O)[C@@H]1C[C@H]1c1ccc(Cn2cnc(Cl)c2)c(Cl)c1 [Compound 11] = condition met
3. O=C(O)[C@@H]1C[C@H]1c1ccc(Cn2ccnc2)cc1 [Compound 19] = condition not met
4. O=C(O)/C=C/c1ccc(Cn2ccnc2)cc1 [Ozagrel, reference compound] = condition not met
5. O=C(O)[C@@H]1C[C@H]1c1ccc(Cn2ccnc2)c(F)c1 [Compound 15] = condition not met

Now, please, on to the next compound.
Lookup: Threshold query (MRT last >= 3 h) on O=C(O)[C@@H]1C[C@H]1c1ccc(Cn2cnc(F)c2)cc1F [Compound 17]
Found: condition met

* * *

Protocol description: Blood-brain barrier (BBB) study in SD rats after single IV and PO administration, brain
Format: in vivo
Assay setup: intravenously at 1 mg/kg; compared to Ozagrel
Metric name: T1/2 and AUC(0-∞) in the brain tissue

1) O=C(O)[C@@H]1C[C@H]1c1ccc(Cn2cnc(F)c2)c(Cl)c1 = significantly increased
2) O=C(O)[C@@H]1C[C@H]1c1ccc(Cn2ccnc2)c(F)c1 = significantly increased
3) O=C(O)[C@@H]1C[C@H]1c1ccc(Cn2cnc(F)c2)cc1F = significantly increased
4) O=C(O)[C@@H]1C[C@H]1c1ccc(Cn2cnc(Cl)c2)c(Cl)c1 = significantly increased
